Test: Apoptosis assay (Annexin V/PI flow cytometry)
Type: cell-based, human
Conditions: human; K562 cells, 100 μM; read-out: Q3: viable
Test Readout: viability at 24 h, 100 µM (%)
Report the figure in % without appending any unit label.

Item O=C(O)c1ccc(-n2cc(C(=O)c3c(O)ccc4ccccc34)cn2)cc1 [CK-75] has what recorded viability at 24 h, 100 µM?
54.5

---

Assay: Apoptosis assay (Annexin V/PI flow cytometry)
Type: cell-based, human
Details: human; K562 cells, 25 μM; read-out: Q3: viable
Test Readout: viability at 24 h, 25 µM (%)
Kindly provide the numeric value in % only, without the unit symbol.

For the molecule O=C(O)c1ccc(-n2cc(C(=O)c3c(O)ccc4ccccc34)cn2)cc1 , what viability at 24 h, 25 µM is on record?
71.6

---

Experiment: MTT cytotoxicity assay, K562
Type: cell-based
Details: human, K562 cells, triplicates, read-out: Cytotoxicity against cancer cells (IC50), K562
Test Readout: IC50 at 72 h

I'd like to know its IC50 at 72 h. The compound in question is COc1ccc(-n2cc(C(=O)c3ccccc3O)cn2)cc1
33.2 µM

Request: CC(C)c1ccc(O)c(C(=O)c2cnn(-c3ccc(C(=O)O)cc3)c2)c1
32.4 µM

Now give it for COc1cccc(O)c1C(=O)c1cnn(-c2ccc(C(=O)O)cc2)c1 too.
> 50 µM

And what about the compound O=C(O)c1cccc(-n2cc(C(=O)c3ccccc3O)cn2)c1 ?
21.5 µM

Note, next up: O=C(c1cnn(-c2ccc(Cl)cc2)c1)c1ccccc1O
> 50 µM

Next:
Please give the measured IC50 at 72 h for this compound: O=C(O)c1ccc(-n2cc(C(=O)c3cc([N+](=O)[O-])ccc3O)cn2)cc1
> 50 µM

Check O=C(O)c1ccc(-n2cc(C(=O)c3cc(F)cc(F)c3O)cn2)cc1 too.
> 50 µM

Query O=C(O)c1ccc(-n2cc(C(=O)c3cc(F)ccc3O)cn2)cc1 next
23.9 µM

Note, next up: O=C(c1cnn(-c2ccc(OC(F)(F)F)cc2)c1)c1ccccc1O
19.8 µM

Would you kindly repeat that for O=C(c1cnn(-c2ccc(Br)cc2)c1)c1ccccc1O ?
> 50 µM

---

Here the recorded IC50 at 72 h is given for each entry.
Test: MTT cytotoxicity assay, JAR
Format: cell-based
Details: human, JAR cells, triplicates, read-out: Cytotoxicity against cancer cells (IC50), JAR
Your answer is read as µM, so omit the unit and give the number.

Any idea what IC50 at 72 h was measured for CC(C)c1ccc(O)c(C(=O)c2cnn(-c3ccc(C(=O)O)cc3)c2)c1 ?
44.4

As a next step, examine the compound that follows.
Which value of IC50 at 72 h has been reported for O=C(c1cnn(-c2ccccc2Cl)c1)c1ccccc1O in the records?
44.7

---

Target: YTHDF2 (Homo sapiens, UniProt Q9Y5A9)
Construct: A YTHDF2 YTH domain construct (residues 383–553) was subcloned to a pOPIN plasmid; made in house; host or cells: Escherichia coli BL21(DE3)
Sequence (Q9Y5A9 383-553): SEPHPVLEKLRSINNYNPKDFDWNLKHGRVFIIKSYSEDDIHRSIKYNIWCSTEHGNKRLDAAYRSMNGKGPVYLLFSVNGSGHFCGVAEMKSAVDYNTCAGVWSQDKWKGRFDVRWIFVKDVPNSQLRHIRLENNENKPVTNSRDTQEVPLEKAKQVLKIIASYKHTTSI
Test: nanoDSF thermal shift assay
Assay type: binding
Conditions: 5 μM compound
Label 1 (yes) when ΔTm at 5 µM < 0.3 °C; otherwise 0 (no).

Would you please look over these solved cases?
Say whether its ΔTm at 5 µM is strictly beneath 0.3 °C. Entry: O=C(O)c1ccc(-n2cc(C(=O)c3cc(Cl)cc(Cl)c3O)cn2)cc1 [CK-61]
0 (no)

Thanks! And O=C(O)c1ccc(-n2cc(C(=O)c3cc(Cl)ccc3O)cn2)cc1 [CK-67] ?
0 (no)

Continue with Cc1cc(O)c(C(=O)c2cnn(-c3ccc(C(=O)O)cc3)c2)cc1Cl [CK-79]
0 (no)

Cool, now O=C(O)c1ccc(-n2cc(C(=O)c3ccc(Br)cc3O)cn2)cc1 [CK-70]
0 (no)

Below: the item to evaluate.
Item CC(C)c1ccc(O)c(C(=O)c2cnn(-c3ccc(C(=O)O)cc3)c2)c1 [CK-55] : ΔTm at 5 µM beneath 0.3 °C, strictly?
1 (yes)
